Target: DN quality control product recombinant protein (a recombinant antigen produced by the company itself) (dengue virus)
Assay: AMO sensor, antibody on sensor, antigen in solution
Catalogue of kon values
A complete answer gives the number followed by the unit.

A selection of reference data follows.
[
  {
    "binder": "Mutation 1-19 (antibody, V domains shown) VH: QVQLQQSGAELVRPGTSVKISCKASGYTFTEYWIGWVKQRPGHGLEWIGDMFPGDIYINYNEKFKGKATLTADTSSNTAYMQLSSLTSEDSAVYFCTNFITLGGIDYWGRGTSLTVSS VL: DVVMTQTPLTLSVTIGQPASISCKSSNSLLDSDGRTYLNWLLQRPGQSPKRLIYLVSKIDSGVPDRFTGSGSVTDFTLKISRVESEDLGVYYCWYGTHFPHTFGAGTKLEVKR",
    "kon": "59200 M⁻¹ s⁻¹"
  },
  {
    "binder": "WT 1-4 (antibody, V domains shown) VH: QVQLQQSGAELVRPGTSVKISCKASGYSFTDYWIGWVKQRPGHGLEWIGDMVPGDIYINYQEKFKGKATLTADTSSNTAYMQLSSLTSEDSAVYFCTNFLTVGGVDYWGRGTSLTVSS VL: DVVMTQTPLTLSVTIGQPASISCKSSQSLLESDGRTYLNWLLQRPGQSPKRLIYLVTKIDSGVPDRFTGSGSVTDFTLKISRVESEDLGVYYCWYGTHFAHTFGAGTKLEVKR",
    "kon": "5080 M⁻¹ s⁻¹"
  }
]

input: Find the recorded kon belonging to WT 1-1 (antibody, V domains shown) VH: QVQLQQSGAELVRPGTSVKISCKASGYSFTEYWIGWVKQRPGHGLEWIGDMVPGDLYINYNEKFKGKATLTADTSSNTAYMQLSSLTSEDSAVYFCTNFITVGGVDYWGRGTSLTVSS VL: DVVMTQTPLTLSVTIGQPASISCKSSQSLLESDGKTYLNWLLQRPGQSPKRLIYLVTKIDSGVPDRFTGSGSVTDFTLKISRVESEDLGVYYCWYGTHFAHTFGAGTKLEVKR and report it.
output: 4570 M⁻¹ s⁻¹
